# study_system: Trace amine-associated receptor 1 (Homo sapiens)
# Sequence (whole entry): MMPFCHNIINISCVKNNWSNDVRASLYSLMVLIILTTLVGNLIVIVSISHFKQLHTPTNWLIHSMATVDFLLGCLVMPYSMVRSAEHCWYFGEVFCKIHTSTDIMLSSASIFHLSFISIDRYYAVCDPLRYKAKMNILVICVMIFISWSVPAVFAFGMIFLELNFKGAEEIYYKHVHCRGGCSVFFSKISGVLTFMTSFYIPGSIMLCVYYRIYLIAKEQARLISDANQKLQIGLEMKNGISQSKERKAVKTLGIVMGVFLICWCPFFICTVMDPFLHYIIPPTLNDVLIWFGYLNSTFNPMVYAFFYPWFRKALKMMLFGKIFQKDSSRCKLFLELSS
# assay_explanation: Agonist activity at human TAAR1 receptor expressed in HEK293T cells cotransfected with beta-2 receptor assessed as cAMP production by BRET assay relative to beta-PEA
# Type: functional, cell-based
# Set-up: concentration or dose not given beside the values
# stated_conditions: HEK-293T
Where Activity equals or exceeds 70%, the correct label is label 1; where it does not, the label is label 0.

compound: Cn1c(CN)nc2ccccc21
discrete_label: label 0
--
compound: CC(C)n1c(C2CCCN2)nc2ccccc21 (stereo not drawn)
discrete_label: label 0
--
compound: COc1cccc(/C=N/NC(=N)N)c1
discrete_label: label 0

Determine whether measured Activity meets or exceeds 70% for N=C(N)N/N=C/c1cccc(OCc2ccccc2)c1 label 1

Determine whether measured Activity meets or exceeds 70% for c1ccc2sc(C3CCCN3)nc2c1 (stereo not drawn) label 0

Determine whether measured Activity meets or exceeds 70% for N=C(N)N/N=C/c1cccc(Br)c1 label 0

Determine whether measured Activity meets or exceeds 70% for N=C(N)N/N=C/c1ccccc1 label 1

Determine whether measured Activity meets or exceeds 70% for Cc1cccc(CCN(C)C[C@H](O)c2ccccc2)c1 label 0
